- study-system: T1, recombinant human IL-12 (rhIL-12) (human, UniProt P29459 23-219; P29460 23-328)
- T1 chain 1: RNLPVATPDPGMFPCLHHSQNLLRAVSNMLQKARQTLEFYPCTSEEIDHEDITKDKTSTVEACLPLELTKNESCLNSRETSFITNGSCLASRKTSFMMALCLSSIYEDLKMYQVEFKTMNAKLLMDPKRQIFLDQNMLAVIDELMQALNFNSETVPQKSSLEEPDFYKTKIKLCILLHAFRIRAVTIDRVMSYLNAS
- T1 chain 2: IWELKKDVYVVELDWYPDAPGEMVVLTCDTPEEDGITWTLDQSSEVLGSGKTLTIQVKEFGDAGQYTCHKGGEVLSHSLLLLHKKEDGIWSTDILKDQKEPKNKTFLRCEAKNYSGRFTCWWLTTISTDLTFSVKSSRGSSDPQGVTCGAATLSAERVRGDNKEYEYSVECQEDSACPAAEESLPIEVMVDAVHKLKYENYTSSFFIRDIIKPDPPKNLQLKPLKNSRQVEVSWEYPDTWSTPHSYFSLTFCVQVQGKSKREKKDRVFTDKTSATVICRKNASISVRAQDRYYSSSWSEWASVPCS
- assay-overview: BIAcore

- binder: "SGGRSNIGNNTVK [Y61 L30 N]"
  koff: "0.000166 s⁻¹"
- binder: "SGGRSNIGDNTVK [Y61 L30 D]"
  koff: "0.00022 s⁻¹"
- binder: "SGGRSNIGTNTVK [Y61 L30 T]"
  koff: "0.000226 s⁻¹"
- binder: "SGGRSNIGSNPVK [Y61 L32 P]"
  koff: "0.000424 s⁻¹"
- binder: "SGGRSNIGSQTVK [Y61 L31 Q]"
  koff: "0.000292 s⁻¹"
- binder: "SGGRSNIGCNTVK [Y61 L30 C]"
  koff: "0.000186 s⁻¹"
- binder: "SGGRSNIGYNTVK [Y61 L30 Y]"
  koff: "0.000483 s⁻¹"
